- Subject of test: Human adenosine A2A receptor (Homo sapiens)
- Sequence (P29274 whole entry): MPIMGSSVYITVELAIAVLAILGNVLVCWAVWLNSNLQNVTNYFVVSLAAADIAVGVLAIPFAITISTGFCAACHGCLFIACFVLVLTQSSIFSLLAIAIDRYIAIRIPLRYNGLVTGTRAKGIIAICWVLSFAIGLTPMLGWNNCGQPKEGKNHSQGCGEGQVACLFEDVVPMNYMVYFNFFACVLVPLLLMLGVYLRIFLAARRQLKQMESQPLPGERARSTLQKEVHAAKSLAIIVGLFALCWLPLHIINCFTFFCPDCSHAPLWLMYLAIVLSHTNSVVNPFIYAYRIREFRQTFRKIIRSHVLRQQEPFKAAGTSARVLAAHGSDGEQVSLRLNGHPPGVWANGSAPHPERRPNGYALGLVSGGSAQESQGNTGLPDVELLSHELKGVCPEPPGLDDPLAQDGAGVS
- Test details: Human adenosine A2A receptor calcium flux assay
- Condition set: A2A stable CHO cell strain, antagonist mode against agonist NECA at EC80, FLIPR Fluo-4
- Experimental: Human adenosine A2A receptor calcium flux assay A2A stable cell strain was constructed by Shanghai WuXi PharmaTech, and the host cell was CHO. Fluo-4 Direct Kit (Invitrogen, Cat. No. F10471). […] FLIPR instrument software was run. According to the programmed procedure, 10 ul of compound dilution buffer was added to the cell plate and the fluorescence signal was read. […] FLIPR instrument software was run. […] Data were analyzed by GraphPad Prism 5.0 and the IC50 values of the test compounds were calculated.
pIC50: −log10 of the molar value.
Range-based classes on measured pIC50: bottom end = under 8, midrange = from 8 up to 9, top end = 9 and over

{"Smiles": "Cc1cc(-c2c(-c3ccc(F)cc3)nc(N)n3nc(C(F)(F)F)nc23)cc(Cl)n1", "Discrete label": "midrange"}
{"Smiles": "Nc1nc(-c2ccccc2)c(-c2ccc3[nH]nnc3c2)c2nc(C3CC3)nn12", "Discrete label": "midrange"}
{"Smiles": "Cc1nc2c(-c3ccc4[nH]nnc4c3)c(-c3ccc(F)cc3F)nc(N)n2n1", "Discrete label": "bottom end"}
{"Smiles": "CCc1nc2c(-c3ccc4nn[nH]c4c3)c(-c3ccccc3OC)nc(N)n2n1", "Discrete label": "bottom end"}
{"Smiles": "Nc1nc(-c2ccccc2)c(-c2ccc3ncccc3c2)c2ncnn12", "Discrete label": "top end"}
{"Smiles": "Cc1cc(-c2c(-c3nccs3)nc(N)n3ncnc23)cc(C(F)(F)F)n1", "Discrete label": "bottom end"}
{"Smiles": "Cc1cc(-c2c(-c3ccccc3Cl)nc(N)n3ncnc23)cc(C)n1", "Discrete label": "bottom end"}
{"Smiles": "COc1cc(-c2c(-c3ccccc3)nc(N)n3ncnc23)cc(C)n1", "Discrete label": "top end"}
{"Smiles": "Nc1nc(-c2ccccc2)c(-c2cc(C(F)(F)F)c3[nH]ncc3c2)c2ncnn12", "Discrete label": "top end"}
{"Smiles": "COc1ccccc1Cc1nc2c(-c3cc(C)nc(C(F)(F)F)c3)c(-c3ccccc3)nc(N)n2n1", "Discrete label": "bottom end"}
{"Smiles": "Nc1nc(-c2ccccc2)c(-c2ccc3[nH]nnc3c2)c2ncnn12", "Discrete label": "top end"}
{"Smiles": "Cc1cc(-c2c(-c3ccccc3)nc(N)n3ncnc23)cc(C)n1", "Discrete label": "top end"}
{"Smiles": "COc1cc(F)ccc1-c1nc(N)n2ncnc2c1-c1cc(C)nc(C)c1", "Discrete label": "midrange"}
{"Smiles": "Cc1cc(-c2c(-c3ccccc3)nc(N)n3ncnc23)cc(C(F)(F)F)n1", "Discrete label": "top end"}
{"Smiles": "Nc1nc(-c2ccccc2)c(-c2ccc3[nH]ncc3c2)c2ncnn12", "Discrete label": "top end"}

---

- Subject of test: Human adenosine A2A receptor (Homo sapiens)
- Test details: Human adenosine A2A receptor calcium flux assay
- Condition set: A2A stable CHO cell strain, antagonist mode against agonist NECA at EC80, FLIPR Fluo-4
pIC50: −log10 of the molar value.

{"Compound": "CCc1nc2c(-c3ccc4nn[nH]c4c3)c(-c3ccccc3F)nc(N)n2n1", "pIC50": 8.33}
{"Compound": "Nc1nc(-c2ccccc2)c(-c2ccc(O)c(Cl)c2)c2ncnn12", "pIC50": 9.85}
{"Compound": "Cc1cc(-c2c(-c3ccc(C#N)cc3)nc(N)n3ncnc23)cc(C(F)(F)F)n1", "pIC50": 8.39}
{"Compound": "Cc1cc(-c2c(-c3ccc(F)cc3)nc(N)n3nc(C)nc23)cc(Cl)n1", "pIC50": 8.97}
{"Compound": "CCc1nc2c(-c3cc(C)nc(C)c3)c(-c3ccccc3)nc(N)n2n1", "pIC50": 9.35}
{"Compound": "Cc1cc(-c2c(-c3ccccc3)nc(N)n3nc(C4CC4)nc23)cc(C(F)(F)F)n1", "pIC50": 8.43}
{"Compound": "Cc1nc2c(-c3ccc4[nH]nnc4c3)c(-c3ccccc3)nc(N)n2n1", "pIC50": 8.53}
{"Compound": "Cc1cc(-c2c(-c3ccc(F)cc3F)nc(N)n3ncnc23)cc(C(F)(F)F)n1", "pIC50": 8.94}
{"Compound": "Nc1nc(-c2ccc(F)cc2)c(-c2cc(Cl)nc(C(F)(F)F)c2)c2nc(CO)nn12", "pIC50": 8.76}
{"Compound": "Cc1cc(-c2c(-c3ccc(F)cc3)nc(N)n3ncnc23)cc(C(F)(F)F)n1", "pIC50": 9.42}
{"Compound": "Cc1cc(-c2c(-c3cc(F)cc(F)c3)nc(N)n3ncnc23)cc(C(F)(F)F)n1", "pIC50": 9.08}
{"Compound": "COc1ccc(-c2nc(N)n3ncnc3c2-c2cc(C)nc(C(F)(F)F)c2)cc1", "pIC50": 8.98}
{"Compound": "Cc1cc(-c2c(-c3ccc(F)cc3F)nc(N)n3nc(CO)nc23)cc(C(F)(F)F)n1", "pIC50": 8.11}
{"Compound": "CC1C=C(c2c(-c3ccccc3)nc(N)n3ncnc23)CC(C)O1 (centres unmarked)", "pIC50": 8.93}
{"Compound": "COc1ccccc1-c1nc(N)n2ncnc2c1-c1cc(C)nc(C)c1", "pIC50": 8.36}
{"Compound": "Nc1nc(-c2ccccc2)c(-c2ccc3c(c2)CCCN3)c2ncnn12", "pIC50": 8.72}
{"Compound": "CCc1cc(-c2c(-c3ccccc3)nc(N)n3ncnc23)cc(C(F)(F)F)n1", "pIC50": 8.55}
